System: UACC-62 melanoma
Assay: NCI tumour cell line growth inhibition, 48 h

# MOLECULE, TGI
data = [
    ("CC(C)(C)OC(=O)NCC(=O)NC1c2ccsc2/C(=N/O)[C@H]1O (stereo partly drawn)", "> 100 µM"),
    ("CS(=O)(=O)OC1CN2CCC1CC2 (stereo not drawn)", "> 100 µM"),
    ("Nc1ncnc2c1ncn2Cc1ccc(C23CC4CC(CC(C4)C2)C3)c(OCc2cc(F)c(F)cc2F)c1", "> 100 µM"),
]

---

Tested on: SNB-75 CNS
Experiment: NCI tumour cell line growth inhibition, 48 h
Catalogue of molecules with associated TGI
QUANTITY KIND: TGI

# MOLECULE, SYSTEM NAME, QUANTITY KIND, MEASURED RESULT
measured = [
    ("COC(=O)[C@@H]1C=C[C@H](OC2OC(COC(C)=O)C(OC(C)=O)C(OC(C)=O)C2OC(C)=O)n2c(=O)c3ccccc3c(=O)n21 (stereo partly specified)", "SNB-75 CNS", "TGI", "20.6 µM"),
    ("Clc1cc2c(cc1Cl)Oc1cc(Cl)c(Cl)cc1O2", "SNB-75 CNS", "TGI", "> 0.625 µM"),
    ("COc1cc2c3c(n(CCCN(CCN)CCCn4c5c(c6cc(OC)c(OC)cc6c4=O)C(=O)c4cc6c(cc4-5)OCO6)c(=O)c2cc1OC)-c1cc2c(cc1C3=O)OCO2", "SNB-75 CNS", "TGI", "> 100 µM"),
    ("O=C1c2cccnc2C(=O)C2C3C=CC(C3)C12 (stereo unspecified)", "SNB-75 CNS", "TGI", "25.8 µM"),
    ("CSc1nc(NC2OCC(OC(C)=O)C(OC(C)=O)C2OC(C)=O)c(N=C(C)C(C)=O)c(=O)[nH]1 (stereo unspecified)", "SNB-75 CNS", "TGI", "> 100 µM"),
    ("CC1=NOC2(C1)C(=O)Nc1ccccc12 (stereo unspecified)", "SNB-75 CNS", "TGI", "> 100 µM"),
]

---

Tested on: ACHN renal
Assay: NCI tumour cell line growth inhibition, 48 h
# key: entry, value: TGI

# COMPOUND, SYSTEM NAME, TGI
measured = [
    ("CS(=O)(=O)OCC1OC(n2ccc(NC(=O)c3ccccc3)nc2=O)CC1OS(C)(=O)=O (stereo not drawn)", "ACHN renal", "> 100 µM"),
    ("N=C(N)c1ccc(OCCOCCOc2ccc(C(=N)N)cc2)cc1", "ACHN renal", "> 100 µM"),
    ("Cc1cccc2cc3c(ccc4ccccc43)c[n+]12", "ACHN renal", "> 100 µM"),
]

---

// values below are reported GI50
System: CCRF-CEM leukemia
Assay: NCI tumour cell line growth inhibition, 48 h

# MOLECULE, SYSTEM NAME, GI50
data = [
    ("Cc1cc2cc3cc(C)c(N(C)C)cc3[n+](C)c2cc1N(C)C", "CCRF-CEM leukemia", "12.2 µM"),
    ("Nc1ncnc2c1ncn2Cc1ccc(C23CC4CC(CC(C4)C2)C3)c(OCc2cc(F)c(F)cc2F)c1", "CCRF-CEM leukemia", "2.4 µM"),
    ("CC(=O)Nc1ccc(/C=C/C(=O)c2ccccc2)cc1", "CCRF-CEM leukemia", "3.36 µM"),
    ("CC(=O)CCc1ccc(OC2OC(COC(=O)c3cc(O)c(O)c(O)c3)C(O)C(O)C2OC(=O)/C=C/c2ccccc2)cc1 (stereo not drawn)", "CCRF-CEM leukemia", "20.7 µM"),
    ("O=c1c2c3c(sc2n2c(-c4cc(-c5ccccc5)no4)nnc2n1Cc1ccccc1)CCCC3", "CCRF-CEM leukemia", "3.22 µM"),
    ("O=S(=O)(Cc1ccc(Cl)cc1Cl)c1ccc(Cl)cc1", "CCRF-CEM leukemia", "0.505 µM"),
    ("CC(=O)N1N=C(c2ccc(Nc3nc(Nc4ccc(Cl)cc4)nc(Nc4ccc(Cl)cc4)n3)cc2)CC1c1ccc([N+](=O)[O-])cc1 (stereo not drawn)", "CCRF-CEM leukemia", "2.92 µM"),
    ("Cn1cc(C2=C(c3cccc(N)c3)C(=O)NC2=O)c2ccccc21", "CCRF-CEM leukemia", "11.2 µM"),
]
